Source listed as patent US12129308.

- System: activated dog MMP13 (dog, UniProt P45452 104-471 (human entry))
- Measurement Description: cell-based or functional assay
Reported Property: IC50, dog fluorogenic peptide assay
Enter the number, and then the unit.

# count of solved cases: 5
C0101PMP513C04 (VHH) VHH: DVQLVESGGGLVQPGGSLRLSCAASGRTFSRYVMGWFRQAPGKEREFVAAINWSSGSTYYADSVKGRFTISRDNSKNTVYLQMNSLRPEDTAVYYCAADRRVYYDTYPNLRGYDYWGQGTLVTVSS: 35.2 nM
C0101PMP516G08 (VHH, Profile 2 Nanobody; also called C0101516G08) VHH: DVQLVESGGGLVQPGGSLRLSCAGSGSIFRINVMAWYRQAPGKQRELVAAITSGGTTNYADSVKGRFTISRDNSKNTVYLQMNSLRPEDTAVYYCYADIGWPYVLDYDFWGQGTLVTVSS: 4.4 nM
C0101PMP520C04 (VHH, Profile 2 Nanobody) VHH: DVQLVESGGGLVQPGGSLRLSCAASGRTFSSYAMGWFRQAPGKEREFVAAISWSGGSTYYSDSVKGRFTISRDNSKNTVYLQMNSLRPEDTAVYYCTAARGGVAGTDGPLGDYNYWGQGTLVTVSS: 10.5 nM
C0101PMP063F01 (VHH, Profile 2 Nanobody) VHH: EVQLVESGGGLVQPGGSLRLSCSASTGIFRINTMGWHRQAPGKQRDLVATFTSDDNTKYADSVKGRFTISRDNAENTVYLQMNDLKPEDTAVYYCHATTVMYDSNSPDYWGQGTQVTVSS: 73.9 nM
C0101PMP529G11 (VHH, Profile 2 Nanobody) VHH: DVQLVESGGGLVQPGGSLRLSCAASGSIFRINAMGWYRQAPGKQRELVAAIISGGTTYYADSVKGRFTISRDNSKNTVYLQMNSLRPEDTAVYYCYADIGWPYVLDYDFWGQGTLVTVSS: 39.1 nM

Task: Give IC50, dog fluorogenic peptide assay for C0101PMP062C02 (VHH, Profile 2 Nanobody; also called C0101062C02) VHH: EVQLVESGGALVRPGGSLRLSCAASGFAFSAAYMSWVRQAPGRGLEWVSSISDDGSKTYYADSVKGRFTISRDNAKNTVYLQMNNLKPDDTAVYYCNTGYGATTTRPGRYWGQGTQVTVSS
Output: 1 nM

Task: # return recorded IC50, dog fluorogenic peptide assay for entry C0101PMP059F06 (VHH, Profile 2 Nanobody) VHH: EVQLVESEGGTVEPGESLRLACAAPGPGIRTNFMAWYRQAPEKEREMVASISRDGSTHYADSVKGRFTISSDNATSTFYLQMNSLQVEDTAVYYCATDPHILHNDRAGAFLVEDYDHWGQGTQVTVSS
Output: 82.6 nM

Task: // Input: C0101PMP517A01 (VHH, Profile 2 Nanobody; also called C0101517A01; C010100087 (parental)) VHH: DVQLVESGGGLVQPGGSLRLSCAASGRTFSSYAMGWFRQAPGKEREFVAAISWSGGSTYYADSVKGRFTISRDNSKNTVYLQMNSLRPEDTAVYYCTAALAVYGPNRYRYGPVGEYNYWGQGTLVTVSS . Output its IC50, dog fluorogenic peptide assay only.
Output: 3.4 nM
